- experimental.target: Left-right determination factor 2 (Homo sapiens) (UniProt O00292)
- Sequence (O00292 whole entry, looked up): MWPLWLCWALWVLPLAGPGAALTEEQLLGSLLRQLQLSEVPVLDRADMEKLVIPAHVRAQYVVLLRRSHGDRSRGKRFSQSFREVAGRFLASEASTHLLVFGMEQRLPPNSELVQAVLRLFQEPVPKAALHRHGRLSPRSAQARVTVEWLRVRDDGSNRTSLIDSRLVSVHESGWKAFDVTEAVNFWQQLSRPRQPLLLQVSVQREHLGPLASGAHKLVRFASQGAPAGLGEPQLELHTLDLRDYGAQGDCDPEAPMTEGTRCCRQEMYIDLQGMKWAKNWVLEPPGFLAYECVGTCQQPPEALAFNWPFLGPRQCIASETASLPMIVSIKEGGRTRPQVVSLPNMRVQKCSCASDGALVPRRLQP
- experimental.protocol: LEFTY2 binders on small-molecule microarrays, primary screen, biochemical, small-molecule microarray, 635 nm fluorescence scan (AID 1110)
- condition.parameters: LEFTY2 binding, higher = more signal
# class assignment by measured composite z-score: LOW = under 0.4, MID = from 0.4 up to 0.6, HIGH = 0.6 and over

Cn1c(=O)n2n(c1=O)[C@H]1[C@H](O)[C@@H]3O[C@@H]3C(=O)[C@H]1CC2 :: MID
CC(C)CON=C1C[C@@H](O)[C@@H](O)[C@@H]2[C@@H]3C(=O)N(C[C@@H]4CCCO4)C(=O)[C@@H]3CC[C@@H]12 :: LOW
CO[C@@H]1COC(=O)[C@@H]2CCCN2C(=O)[C@@H](C)COC(=O)CC=C[C@H]1C :: HIGH
C#CCCCON=C1C[C@@H](O)[C@@H](O)[C@@H]2[C@@H]3C(=O)N(c4cccc(Oc5ccccc5)c4)C(=O)[C@@H]3CC[C@H]12 :: LOW
CC(C)(C)N1C(=O)[C@H]2[C@H]3[C@H](O)[C@H](O)CC(=O)[C@@H]3CC[C@H]2C1=O :: HIGH
COc1ccc(COC(=O)NN=C2C[C@@H](O)[C@@H](O)[C@@H]3[C@@H]4C(=O)N(c5ccc(F)cc5F)C(=O)[C@@H]4CC[C@H]23)cc1 :: LOW
CC[C@@H](c1ccccc1)n1c(=O)n2n(c1=O)[C@H]1[C@H](O)[C@@H]3O[C@@H]3C(=O)[C@H]1CC2 :: MID
CCN1C(=O)[C@H]2[C@H]3[C@H](O)[C@H](O)CC(=NOC[C@H]4O[C@H](c5ccccc5)C=C[C@@H]4Oc4ccc(OC)cc4)[C@@H]3CC[C@H]2C1=O :: HIGH
COc1cccc([C@@H]2Oc3ccc(OC)cc3C(=O)[C@H]2O)c1 :: LOW
COC(=O)[C@H](C)NC(=O)CCC1CC(OC(=O)NCc2ccc3c(c2)OCO3)CC2(CCCC(COC(=O)NCC3CCCCC3)O2)O1 (some centres undefined) :: HIGH

input: Any idea which band CO[C@H]1COC(=O)CC=C[C@H](C)COC(=O)[C@@H](C)NC(=O)CC=C[C@@H]1C is in?
output: HIGH

----------
- System: Lefty1
- experimental.protocol: Lefty1 binders on small-molecule microarrays, primary screen, biochemical, small-molecule microarray, 635/667 nm fluorescence (AID 1139)
- condition.parameters: small-molecule microarray binding, fluorescence 635/667; higher = more signal
For each record, write down the corresponding composite z-score.
Answers are plain numbers.

Take a look at these entries with their results.
CC(CCN1CCCc2nc(C)c(C)cc21)=NO[C@@H](C)c1cc(-c2c(C)cc(C)cc2C)no1 :: 0.643
COc1cc(O)c(C(=O)C=Cc2ccc3c(c2)OCO3)c(OC)c1 :: 0.707
CC(=O)OC[C@H]1O[C@H](CC=NO[C@H](C)c2cn([C@H](CO)Cc3ccccc3)nn2)C=C[C@@H]1OC(C)=O :: 0.732

Required: composite z-score, one value per compound below.
1. COC(=O)[C@@H]1CC[C@H](C)[C@@H](c2ccc(C)cc2)N1C(=O)c1ccc(C=NOC[C@@H](C)[C@H](OCc2ccccc2)C(C)C)cc1
2. O=C1[C@H]2[C@H]3[C@H](O)[C@H](O)CC(=NOC[C@@H](O)COCc4ccco4)[C@@H]3CC[C@H]2C(=O)N1C[C@@H]1CCCO1
3. C[C@H](ON=C1[C@H]2CCn3c(=O)n(-c4ccccc4)c(=O)n3[C@H]2[C@H](O)[C@@H]2O[C@H]12)c1cn([C@H](CO)Cc2ccccc2)nn1
4. CO[C@@H]1COC(=O)CC=C[C@@H](C)[C@@H]2C=C[C@H](O)[C@@H](COC(=O)CC=C[C@H]1C)O2

output:
[0.799, 1.17, 0.572, 1.66]

----------
- System: Lefty1
- experimental.protocol: Lefty1 binders on small-molecule microarrays, primary screen, biochemical, small-molecule microarray, 635/667 nm fluorescence (AID 1139)
- condition.parameters: small-molecule microarray binding, fluorescence 635/667; higher = more signal
value.type: composite z-score
Numbers only.

Examples from the recorded data:
COC(=O)C1=C(C)N(Cc2ccccc2)[C@]23O[C@](C(=O)OC)(C(=O)N2[C@@H]1c1ccccc1)C(C(=O)OC)=C3C(=O)OC :: 1.09
COc1ccc(O[C@H]2C=C[C@@H](c3ccccc3)O[C@@H]2CON=C(C)C)cc1 :: -0.0027
COC(=O)CC=C[C@@H](C)[C@@H](C=NO[C@@H](C)c1cn([C@H](CO)Cc2ccccc2)nn1)OC :: 0.579

// switching to the query compound
input: Returns the measured composite z-score for the input compound. Input: CO[C@H]1COC(=O)[C@H](C)NC(=O)CC=C[C@@H](C)[C@H](OC)COC(=O)[C@@H](OCc2ccccc2)C=C[C@@H]1C
output: 0.529

----------
- experimental.protocol: binders of probe aHhip on microarray, primary screen, stem cell growth factor project, biochemical, small-molecule microarray, fluorescence 635/667 (AID 1087);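 note: score merges spot fluorescence at 667nm with spot signal to noise ratio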
- condition.parameters: higher = more signal
Tag: TRUE if measured composite z-score is not below 0.03, FALSE if it is.

Recorded results for 2 molecules are shown here.
CC(C)=CCCC(C)=CCON=C1C[C@@H](O)[C@@H](O)[C@@H]2[C@@H]3C(=O)N(c4ccc(F)cc4F)C(=O)[C@@H]3CC[C@@H]12 :: TRUE
O=C(NN=C1C[C@@H](O)[C@@H](O)[C@@H]2[C@@H]3C(=O)N(C[C@@H]4CCCO4)C(=O)[C@@H]3CC[C@@H]12)OCc1ccccc1 :: FALSE

input: Quick check: does O=C1C=C[C@@H](O)[C@@H]2[C@@H]3C(=O)N(C[C@@H]4CCCO4)C(=O)[C@@H]3CC[C@@H]12 have composite z-score greater than or equal to 0.03?
output: FALSE

input: How about Cc1ccc(S(=O)(=O)N[C@@H]2COC(=O)[C@@H](C)COC(=O)CC=C[C@H]2C)cc1 ?
output: TRUE

input: // query: CON=CC[C@@H]1C=C[C@H](OC(C)=O)[C@@H](COC(C)=O)O1
output: TRUE

input: Repeat with C[C@@H]1CC[C@H]2C(=O)O[C@@H](COc3ccc(C(C)(C)C)cc3)CN2[C@@H]1c1ccc(Br)cc1
output: FALSE

input: Note, next up: CO[C@@H]1COC(=O)[C@@H](C)COC(=O)[C@@H](C)NC(=O)CC=C[C@@H]1C
output: FALSE

input: Next entry: CON=C1[C@H]2CCn3c(=O)n(-c4ccccc4)c(=O)n3[C@H]2[C@H](O)[C@@H]2O[C@H]12
output: FALSE

input: Next entry: CC=CC1=C(CO)C(=O)[C@@H]2O[C@@H]2C1=O
output: FALSE

----------
Record form. Attribute: composite z-score. Fill in for each entry.
- Tested on: Fibrinogen (Alexa647-labelled)
- experimental.protocol: fibrinogen binders on compound microarrays, profiling panel, artefact control for SMM control-protein annotation, biochemical, small-molecule microarray, 635/667 nm fluorescence (AID 1131);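 note: z-score merges 667 nm fluorescence with per-spot signal-to-noise over triplicate slides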
- condition.parameters: fibrinogen-A647 binding fluorescence, higher = more signal
Give bare numbers.

Below, 3 compounds whose answers are already recorded.
CC(C)CON=C1C[C@@H](O)[C@@H](O)[C@@H]2[C@@H]3C(=O)N(Cc4ccc5c(c4)OCO5)C(=O)[C@@H]3CC[C@H]12 :: 0.237
CCOC(=O)[C@H](Cc1ccccc1)NC(=O)CCC1CC(OC(=O)NCCc2ccc(F)cc2)CC2(CCCC(COC(=O)NCCOC)O2)O1 (some centres undefined) :: 0.916
CCOC(=O)[C@H](CC(C)C)NC(=O)CCC1CC(OC(=O)NCCc2ccc(F)cc2)CC2(CCCC(COC(=O)NCCc3ccc(Cl)cc3)O2)O1 (some centres undefined) :: 0.75

Proceed to the following item.
input: # get_value(readout='composite z-score', item= O=C1C2=CC[C@H]3C(=O)N(c4cccc(Oc5ccccc5)c4)C(=O)[C@H]3[C@H]2[C@H](O)[C@@H]2O[C@H]12 )
output: -0.156

----------
For each entry below, report its composite z-score value.
- experimental.target: E3 ubiquitin-protein ligase XIAP (Homo sapiens) (UniProt P98170)
- Sequence (P98170 whole entry, looked up): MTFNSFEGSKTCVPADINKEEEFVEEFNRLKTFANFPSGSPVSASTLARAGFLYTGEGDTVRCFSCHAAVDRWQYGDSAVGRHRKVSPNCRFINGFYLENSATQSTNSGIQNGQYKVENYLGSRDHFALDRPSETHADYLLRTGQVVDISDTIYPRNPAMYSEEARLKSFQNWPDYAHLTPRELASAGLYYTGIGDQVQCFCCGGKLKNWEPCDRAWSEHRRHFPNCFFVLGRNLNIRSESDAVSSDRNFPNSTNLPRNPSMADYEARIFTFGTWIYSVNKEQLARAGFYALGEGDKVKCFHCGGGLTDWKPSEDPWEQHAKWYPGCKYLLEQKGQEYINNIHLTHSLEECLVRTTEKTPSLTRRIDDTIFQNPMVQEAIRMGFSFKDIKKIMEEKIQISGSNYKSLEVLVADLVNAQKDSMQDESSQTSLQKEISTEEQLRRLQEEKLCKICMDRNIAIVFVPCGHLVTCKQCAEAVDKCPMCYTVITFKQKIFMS
- experimental.protocol: XIAP binders, primary screen, biophysical, small-molecule microarray, fluorescence 635 nm (AID 1181);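 note: score merges 667 nm emission and signal to noise over triplicate slides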
- condition.parameters: small-molecule microarray binding, higher = more signal
Numbers only.

Example results:
CO[C@H]1COC(=O)[C@@H](Cc2ccccc2)NC(=O)[C@@H](C)COC(=O)CCC[C@@H]1C :: -0.0918
COc1cc(O)c(C(=O)C=Cc2ccc3c(c2)OCO3)c(OC)c1 :: 0.215
C=CC[C@@H]1C=C[C@H](ON=C(C)CCN2CCc3nc(-c4ccccc4)c(-c4ccccc4)cc3C2)[C@@H](CO)O1 :: -0.12
CO[C@H]1COC(=O)[C@@H]2CCCN2C(=O)CC=C[C@@H](C)[C@H](OC)COC(=O)[C@@H](OCc2ccccc2)C=C[C@@H]1C :: -0.284
CCC(=O)[C@@]1(O)C(=O)N2C(=C3C(=O)OCC[C@@H]31)N(Cc1ccccc1)C(C)=C(C(=O)OC)[C@H]2c1ccccc1 :: -0.175

Working through the 3 molecules below one at a time, give composite z-score for each.
1. CCOC(=O)[C@H](CC(C)C)NC(=O)CCC1CC(OC(=O)NCCc2ccc(F)cc2)CC2(CCCC(COC(=O)NCC3CCCCC3)O2)O1 (stereo not given in full)
2. COC(=O)[C@H]1O[C@@H](c2c(OC)c(OC)c(C)c(OC)c2OC)[C@H](C)[C@@H](O)[C@H]1C
3. O=C1CCCC=C1C(O)CCOC(c1ccccc1)(c1ccccc1)c1ccccc1 (stereo not given)

output:
-0.153
-0.13
0.412

Hello, I would appreciate it if you could give composite z-score for each entry below.
1. O=C(NN=C1C[C@@H](O)[C@@H](O)[C@@H]2[C@@H]3C(=O)N(C4CCCCC4)C(=O)[C@@H]3CC[C@@H]12)OCc1ccccc1
2. Cc1ccc(S(=O)(=O)N[C@@H]2COC(=O)[C@@H](C)COC(=O)CC=C[C@H]2C)cc1
3. COC(=O)C1=C(C)N(Cc2ccccc2)[C@]23O[C@](C(=O)OC)(C(=O)N2[C@@H]1c1ccccc1)C(C(=O)OC)=C3C(=O)OC
4. CCOC(=O)[C@H](CC(C)C)NC(=O)CCC1CC(OC(=O)NCCc2ccc(F)cc2)CC2(CCCC(COC(=O)NCCC(C)C)O2)O1 (stereo not given in full)

output:
-0.505
0.214
-0.254
0.0938
